B1: TPR t1 (parent)
chain: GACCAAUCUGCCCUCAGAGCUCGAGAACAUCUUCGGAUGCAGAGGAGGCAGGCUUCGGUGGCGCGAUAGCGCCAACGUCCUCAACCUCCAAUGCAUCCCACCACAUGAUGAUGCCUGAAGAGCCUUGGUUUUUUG

# Variants of: B1
# test details: polymerase ribozyme fitness, log enrichment relative to wild type (log ratio); higher = more active; in vitro selection for triplet polymerase activity
Think of -2 as a floor: if polymerase ribozyme fitness (log ratio) stands on it or above, it is yes; beneath it, no.

Example entries begin here.
> print(dat)
          residue.change  answer.label
1              C15U G61C            no
2  G52A A90C A100U A111G            no
3            C104A C123U           yes
4          U9C A43C A46G           yes
5  G57C C97U G110U C115U            no

Query :: Dear colleague, could you confirm whether C12G G47C G52A C64U C123A has polymerase ribozyme fitness (log ratio) at or above -2?
Result :: no

Query :: Dear colleague, could you confirm whether G51U C64G A83C G113U C123G G127A has polymerase ribozyme fitness (log ratio) at or above -2?
Result :: no

Query :: Dear colleague, could you confirm whether A5C G42U G48C G69U has polymerase ribozyme fitness (log ratio) at or above -2?
Result :: yes

Query :: Dear colleague, could you confirm whether A6U C22U C64U C124U has polymerase ribozyme fitness (log ratio) at or above -2?
Result :: no

Query :: Dear colleague, could you confirm whether G45C G51A G63A U78A C123G has polymerase ribozyme fitness (log ratio) at or above -2?
Result :: no

Query :: Dear colleague, could you confirm whether C86A A90C G135U has polymerase ribozyme fitness (log ratio) at or above -2?
Result :: no

Query :: Dear colleague, could you confirm whether U9A C13G G35A has polymerase ribozyme fitness (log ratio) at or above -2?
Result :: no

Query :: Dear colleague, could you confirm whether C11U C40G C64U has polymerase ribozyme fitness (log ratio) at or above -2?
Result :: yes

Each recorded value in this set is attributed to the RNAGym collection of RNA variant scans (doi:10.1073/pnas.2313332121).
